Values from PubChem BioAssay (EPA / NIEHS)

Read-out: Secreted IgG (sIgG), gene 3500
protocol-text: BSK_BT_sIgG: BioMAP Diversity Plus: BT Assay for Secreted IgG (sIgG) Biomarker Activity (AID 2284226)
assay-setup: primary human B cells with PBMC
Activity calls are given as the source filed them. The calls were made as follows: active = hit-call score of the fitted dose curve at least 0.9, where 1 is the maximum; inactive = score below 0.9.
Labels: active, inactive

molecule: OCC(O)CC(F)(F)C(F)(F)C(F)(F)C(F)(F)C(F)(F)C(F)(F)C(F)(F)C(F)(F)F (stereo not drawn)
label: inactive

molecule: O=S(=O)(O)CCC(F)(F)C(F)(F)C(F)(F)C(F)(F)C(F)(F)C(F)(F)C(F)(F)C(F)(F)F
label: inactive

molecule: C=C(C)C(=O)OCC(F)(F)C(F)(F)C(F)(F)C(F)F
label: inactive

molecule: C[C@]12CC[C@H]3C(=CCc4cc(O)ccc43)[C@@H]1CCC2=O
label: active

molecule: O=C(O)C(F)(F)C(F)(F)C(F)(F)OC(F)(F)F
label: inactive

molecule: O=C(F)C1(F)C(F)(F)C(F)(F)C(F)(F)C(F)(F)C1(F)F
label: inactive

molecule: Cc1ccc(S(=O)(=O)C(I)I)cc1
label: active

molecule: Cc1cnccn1
label: active

----------
protocol-text: ATG_NRF2_ARE_CIS: Attagene CIS-FACTORIAL HepG2 Assay for human Nuclear Factor Erythroid 2 Related Factor 2 (NFR2) response to Antioxidant Response Elements (ARE) (AID 2282992);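 as to AC50: reporter mRNA level measured by RT-PCR and capillary electrophoresis fluorescence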
assay-setup: HepG2 Attagene ARE/NRF2 reporter, transcription factor activity; actives raise or lower the signal
Active and inactive are the calls of the source. How the source made its calls: active means hit-call score of the fitted dose curve at least 0.9, where 1 is the maximum; inactive means score below 0.9.

compound: CC1=CC2C3C=CC(C3)C2C1C (centres undefined)
AC50: 50.6 µM (active)
//
compound: Nc1cccnc1N
AC50: 17.9 µM (active)
//
compound: Cc1cc(C)c(O)c(C(C)(C)C)c1
AC50: 52.2 µM (active)
//
compound: CC(C)(C)c1cc(CCC(=O)OCC(COC(=O)CCc2cc(C(C)(C)C)c(O)c(C(C)(C)C)c2)(COC(=O)CCc2cc(C(C)(C)C)c(O)c(C(C)(C)C)c2)COC(=O)CCc2cc(C(C)(C)C)c(O)c(C(C)(C)C)c2)cc(C(C)(C)C)c1O
AC50: inactive
//
compound: CCCCCCCCCCCC(=O)Cl
AC50: 74.5 µM (active)
//
compound: CC(C)=CCCC(C)O (centres undefined)
AC50: inactive
//
compound: CCN(CC)c1ccc(N=Nc2ccccc2)cc1
AC50: 3.86 µM (active)
//
compound: NC(O)(C(F)(F)F)C(F)(F)F
AC50: inactive
//
compound: FC(F)(F)C(F)(F)C(F)(F)CC1CO1 (centres undefined)
AC50: inactive
//
compound: C=CC(=O)OCC(F)(F)C(F)(F)C(F)(F)COC(=O)C=C
AC50: 12.7 µM (active)
//
compound: O=C1OC(=O)c2ccc3c4c(ccc1c24)C(=O)OC3=O
AC50: inactive
//
compound: O=C(O)C(F)(F)C(F)(F)C(F)(F)OC(F)(F)F
AC50: inactive
//
compound: NC(=O)C(F)(F)C(F)(F)C(F)(F)C(F)(F)C(F)(F)C(F)(F)C(F)(F)F
AC50: inactive
//
compound: O=S(=O)(Cl)C(F)(F)C(F)(F)C(F)(F)C(F)(F)C(F)(F)C(F)(F)C(F)(F)C(F)(F)F
AC50: 70.3 µM (active)
//
compound: CCOCOCC
AC50: inactive
//
compound: O=c1cccc[nH]1
AC50: inactive
//
compound: CCN=C1C=CC(=C(c2ccc(N(CC)CC)cc2)c2ccc(N(CC)CC)cc2)c2ccccc21
AC50: 0.0811 µM (active)
//
compound: O=S(=O)(O)CCC(F)(F)C(F)(F)C(F)(F)C(F)(F)C(F)(F)C(F)(F)C(F)(F)C(F)(F)F
AC50: 91.8 µM (active)
//
compound: Nc1cc([N+](=O)[O-])cc(Cl)c1O
AC50: inactive
//
compound: Cc1ccc2c(c1)OCC(=O)CO2
AC50: inactive
//
compound: O=C1C=CC(=O)N1c1ccccc1
AC50: 53.8 µM (active)
//
compound: CC1CCCCC1
AC50: inactive
//
compound: Cc1cnccn1
AC50: inactive
//
compound: O=C(c1ccccc1)c1ccc(Cl)cc1
AC50: 132 µM (active)

----------
protocol-text: ATG_TA_CIS: Attagene CIS-FACTORIAL HepG2 Assay for human TA Basal Promoter (AID 2282964)
assay-setup: HepG2 Attagene CIS-factorial TA basal promoter reporter; actives raise or lower the signal
Active and inactive are the calls of the source. How the source made its calls: active means hit-call score of the fitted dose curve at least 0.9, where 1 is the maximum; inactive means score below 0.9.
Labels: active, inactive

smiles-data: Oc1ccc2c(c1)CCC2
label: inactive
//
smiles-data: O=C(Cl)C(F)(F)C(F)(F)C(F)(F)C(F)(F)C(F)(F)C(F)(F)F
label: inactive
//
smiles-data: COc1ccccc1C=O
label: inactive
//
smiles-data: CCCCCCCCCCCCCC[P+](CCCC)(CCCC)CCCC
label: inactive
//
smiles-data: NCC(F)(F)C(F)(F)C(F)(F)C(F)(F)C(F)(F)C(F)(F)C(F)(F)C(F)(F)F
label: inactive
//
smiles-data: CCC/C=C/CO
label: inactive
//
smiles-data: O=C=Nc1cccc2c(N=C=O)cccc12
label: inactive
//
smiles-data: O=C(O)CCC(F)(F)C(F)(F)C(F)(F)C(F)(F)C(F)(F)C(F)(F)C(F)(F)F
label: inactive
//
smiles-data: CSc1ccc(O)cc1C
label: inactive
//
smiles-data: CCN=C1C=CC(=C(c2ccc(N(CC)CC)cc2)c2ccc(N(CC)CC)cc2)c2ccccc21
label: active
//
smiles-data: O=C(O)C(F)(F)C(F)(F)C(F)(F)C(F)(F)C(F)(F)C(F)(F)C(F)F
label: inactive
//
smiles-data: NC(=O)C(F)(F)C(F)(F)C(F)(F)C(F)(F)C(F)(F)C(F)(F)C(F)(F)F
label: inactive
//
smiles-data: CCCCOC(=O)[C@H](C)O
label: inactive
//
smiles-data: O=S(=O)(O)c1ccc(Cl)cc1
label: inactive
//
smiles-data: FC(F)(F)C(F)(F)C(F)(F)C(F)(F)C(F)(F)C(F)(F)C(F)(F)CCI
label: inactive

----------
protocol-text: BSK_3C_Proliferation: Cell Proliferation Assessment in the BioMAP Diversity Plus: 3C Assay (AID 2283006)
assay-setup: primary human endothelial cells (HUVEC)
The source made the active and inactive calls. How the source made its calls: active means hit-call score of the fitted dose curve at least 0.9, where 1 is the maximum; inactive means score below 0.9.
Labels: yes (1) = active, no (0) = inactive

smiles-data: O=C(O)CCC(F)(F)C(F)(F)C(F)(F)C(F)(F)C(F)(F)C(F)(F)C(F)(F)F
label: no (0)
--
smiles-data: O=C(O)C(F)(F)OC(F)(F)C(F)(F)OC(F)(F)C(F)(F)OC(F)(F)F
label: no (0)
--
smiles-data: NC(O)(C(F)(F)F)C(F)(F)F
label: no (0)
--
smiles-data: Brc1nc2ccccc2s1
label: no (0)
--
smiles-data: O=C(O)C(F)(F)C(F)(F)C(F)(F)OC(F)(F)F
label: no (0)
--
smiles-data: FC(F)(F)C(F)(F)C(F)(F)C(F)(F)C(F)(F)C(F)(F)CC[Si](Cl)(Cl)Cl
label: no (0)
--
smiles-data: CCOC(C=C(C)CCC=C(C)C)OCC
label: yes (1)
--
smiles-data: NCC(F)(F)C(F)(F)C(F)(F)C(F)(F)C(F)(F)C(F)(F)C(F)(F)C(F)(F)F
label: no (0)
--
smiles-data: OC(O)C(F)(F)C(F)(F)F
label: no (0)

----------
Read-out: Vascular cell adhesion molecule 1 (VCAM1), VCAM1 (gene 7412)
protocol-text: BSK_MyoF_VCAM1: BioMAP Diversity Plus: MyoF Assay for Vascular cell adhesion molecule 1 (VCAM1) Biomarker Activity (AID 2284231)
assay-setup: primary human lung fibroblasts
The source made the active and inactive calls. How the source made its calls: active means hit-call score of the fitted dose curve at least 0.9, where 1 is the maximum; inactive means score below 0.9.
Labels: active, inactive

compound: OCC(O)CC(F)(F)C(F)(F)C(F)(F)C(F)(F)C(F)(F)C(F)(F)C(F)(F)C(F)(F)F (centres undefined)
label: inactive
//
compound: C=C(C)C(=O)OCC(F)(F)C(F)(F)C(F)(F)C(F)F
label: inactive
//
compound: CCN(CC)c1ccc(C=O)cc1
label: inactive
//
compound: FC(F)(F)C(F)(F)C(F)(F)C(F)(F)C(F)(F)C(F)(F)CC[Si](Cl)(Cl)Cl
label: inactive
//
compound: CC1=CC2C3C=CC(C3)C2C1C (centres undefined)
label: inactive
//
compound: O=C1c2c(O)ccc(Nc3ccc(CCO)cc3)c2C(=O)c2c([N+](=O)[O-])ccc(O)c21
label: active
//
compound: O=S(=O)(Cl)C(F)(F)C(F)(F)C(F)(F)C(F)(F)C(F)(F)C(F)(F)C(F)(F)C(F)(F)F
label: inactive
//
compound: FC(F)(F)C(F)(F)C(F)(F)C(F)(F)C(F)(F)C(F)(F)C(F)(F)CCI
label: inactive
//
compound: O=C(O)CCC(F)(F)C(F)(F)C(F)(F)F
label: inactive
